# measurement_target: PI3K beta (Homo sapiens, UniProt P42338)
# Construct: for the full-length p110-b subunit are generated and fused by overlapping PCR; p85(iSH2) fusion partner (see partner chain) (N); His tag (C); made in house; host or cells: baculovirus; Tn5 (Trichoplusia ni) or TiniPro insect cells
# Sequence (P42338 with tags, fused parts or gaps limits assumed): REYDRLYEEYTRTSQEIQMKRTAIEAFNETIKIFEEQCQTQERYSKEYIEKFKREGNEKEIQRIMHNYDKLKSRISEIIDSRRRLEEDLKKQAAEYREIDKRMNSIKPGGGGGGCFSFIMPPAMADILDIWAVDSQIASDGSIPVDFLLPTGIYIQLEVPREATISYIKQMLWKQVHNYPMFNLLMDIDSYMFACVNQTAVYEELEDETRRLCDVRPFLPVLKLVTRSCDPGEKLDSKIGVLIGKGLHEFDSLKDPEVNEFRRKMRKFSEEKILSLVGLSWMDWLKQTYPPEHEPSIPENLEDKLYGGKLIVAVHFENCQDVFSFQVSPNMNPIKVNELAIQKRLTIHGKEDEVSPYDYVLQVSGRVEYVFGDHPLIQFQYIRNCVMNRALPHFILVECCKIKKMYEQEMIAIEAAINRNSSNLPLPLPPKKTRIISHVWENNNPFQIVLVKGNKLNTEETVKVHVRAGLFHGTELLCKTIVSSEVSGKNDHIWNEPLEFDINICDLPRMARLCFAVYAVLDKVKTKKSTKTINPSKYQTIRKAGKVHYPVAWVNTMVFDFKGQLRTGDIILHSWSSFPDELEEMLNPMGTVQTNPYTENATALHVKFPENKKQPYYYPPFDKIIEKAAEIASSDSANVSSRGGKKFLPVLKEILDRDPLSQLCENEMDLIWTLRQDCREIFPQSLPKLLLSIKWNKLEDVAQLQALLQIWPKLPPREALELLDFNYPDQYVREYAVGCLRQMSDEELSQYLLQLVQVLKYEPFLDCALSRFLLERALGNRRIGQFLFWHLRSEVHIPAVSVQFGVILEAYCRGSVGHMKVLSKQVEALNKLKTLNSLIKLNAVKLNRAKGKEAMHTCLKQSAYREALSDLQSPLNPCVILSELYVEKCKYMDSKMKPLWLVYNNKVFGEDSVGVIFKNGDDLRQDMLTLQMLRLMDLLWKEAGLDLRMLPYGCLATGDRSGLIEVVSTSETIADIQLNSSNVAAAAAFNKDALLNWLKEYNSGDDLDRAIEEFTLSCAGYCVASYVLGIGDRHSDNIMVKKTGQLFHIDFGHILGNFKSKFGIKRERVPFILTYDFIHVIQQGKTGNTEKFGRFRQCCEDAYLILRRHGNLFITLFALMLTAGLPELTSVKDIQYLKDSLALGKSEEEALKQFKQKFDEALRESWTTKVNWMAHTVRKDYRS
# measurement_protocol: PI3K beta kinase assay (Kinase-Glo luminescence)
# Assay type: biochemical
pIC50: −log10 of the molar value.
observable: pIC50

Known results for molecules:
{"cpd_smiles": "Cc1nn(C)cc1-n1c(=O)n(C)c2cnc3ccc(-c4cncc(N(C)C5CCC5)c4)cc3c21", "measurement_target": "PI3K beta (Homo sapiens, UniProt P42338)", "observable": "pIC50", "reported": 7.44}
{"cpd_smiles": "Cc1nn(C)cc1-n1c(=O)n(C)c2cnc3ccc(-c4cnc5cc[nH]c5c4)cc3c21", "measurement_target": "PI3K beta (Homo sapiens, UniProt P42338)", "observable": "pIC50", "reported": 7.48}
{"cpd_smiles": "CCNc1cc(-c2ccc3ncc4c(c3c2)n(-c2c(C)nn(C)c2C)c(=O)n4C)cnc1F", "measurement_target": "PI3K beta (Homo sapiens, UniProt P42338)", "observable": "pIC50", "reported": 7.01}

[P] COc1ncc(-c2ccc3ncc4c(c3c2)n(-c2cn(C)nc2C)c(=O)n4C)cc1N
[Q] CNC(=O)c1ccc(-c2ccc3ncc4c(c3c2)n(-c2c(C)nn(C)c2C)c(=O)n4C)cn1
[R] Cc1nn(C(C)C)cc1-n1c(=O)n(C)c2cnc3ccc(-c4cnc(N)c(F)c4)cc3c21
stdin: Task for the reader: rank each entry by its pIC50, from the minimum upward. Labels, ranked as asked.
stdout: Q, R, P

[P] Cc1nn(C(C)C)cc1-n1c(=O)n(C)c2cnc3ccc(-c4cnc(F)c(N)c4)cc3c21
[Q] Cc1nn(C)cc1-n1c(=O)n(C)c2cnc3ccc(-c4cc(O)cc(C(F)(F)F)c4)cc3c21
[R] Cc1c(-n2c(=O)n(C)c3cnc4ccc(-c5ccc(N(C)C)nc5)cc4c32)cnn1C
[S] CC(=O)Nc1cc(-c2ccc3ncc4c(c3c2)n(-c2cn(C)nc2C)c(=O)n4C)cnc1Cl
stdin: Task for the reader: rank each entry by its pIC50, from the minimum upward. Labels, ranked as asked.
stdout: R, S, P, Q

[I] CCNc1cc(-c2ccc3ncc4c(c3c2)n(-c2c(C)nn(C)c2C)c(=O)n4C)cnc1CO
[II] Cc1nn(C)cc1-n1c(=O)n(C)c2cnc3ccc(-c4cnc(Cl)c(N)c4)cc3c21
stdin: Of I versus II , which is the one with smaller reported pIC50? Answer = label.
stdout: I
